growth overview
- Tested on: SK-MEL-5 melanoma
- procedure summary: NCI-60 one-dose screen, 48 h (100 = growth as untreated, 0 = no growth, -100 = all killed)
- experimental context: 10 µM
The panel holds about 83,000 compounds, 20% with a hit somewhere; the sample as a whole holds those more often.
Write it as a number; the unit % goes unstated.

CC(=O)C1CCCCC1: 99.9
NC(CSC(c1ccccc1)(c1ccccc1)c1ccccc1)C(=O)O (stereo unspecified): 26.3
Nc1ccc(N)c([N+](=O)[O-])c1: 95.2
O=C(O)[C@@H]1[C@H]2C[C@H]3c4[nH]c5ccccc5c4CCN3C[C@@H]2CC[C@@H]1O: 111
CCCCOC(=O)c1ccc(C(C)C)cc1: 106

Exercise: Given NC(=S)N/N=C/c1ccc(N)cc1 , report its growth on SK-MEL-5 melanoma.
Solution: 99.8

Exercise: Given CN(C)c1ccc(C(c2ccc(O)cc2)c2ccc(N(C)C)cc2)cc1 , report its growth on SK-MEL-5 melanoma.
Solution: 90.5

Exercise: Given Cc1cc(C)cc(NCCC#N)c1 , report its growth on SK-MEL-5 melanoma.
Solution: 107

Exercise: Given COc1cc2nc3cc([N+](=O)[O-])ccc3c(Cl)c2cc1OC , report its growth on SK-MEL-5 melanoma.
Solution: 99.1

Exercise: Given OC(c1ccccn1)C(O)c1ccccn1 (stereo unspecified) , report its growth on SK-MEL-5 melanoma.
Solution: 106

Exercise: Given CC1(C(=O)O)NC(C(=O)O)Cc2c1[nH]c1ccccc21 (stereo unspecified) , report its growth on SK-MEL-5 melanoma.
Solution: 104

Exercise: Given CC1CCCCN1C(=S)Nc1ccc(S(=O)(=O)N2CCCCC2)cc1 (stereo unspecified) , report its growth on SK-MEL-5 melanoma.
Solution: 103

Exercise: Given NC(=S)NN=C1CCCC1 , report its growth on SK-MEL-5 melanoma.
Solution: 97.8

Exercise: Given CCNc1nc2c(cnn2C)c(=O)[nH]1 , report its growth on SK-MEL-5 melanoma.
Solution: 96.7

Exercise: Given CC(=O)Nc1cccc(NC(C)=O)n1 , report its growth on SK-MEL-5 melanoma.
Solution: 105

Exercise: Given COC(=O)Nc1nc2ccc(C(=O)c3ccc(F)cc3)cc2[nH]1 , report its growth on SK-MEL-5 melanoma.
Solution: 13.6

Exercise: Given CN(C)c1ccc(CNC(C(=O)c2ccccc2)c2ccccc2)cc1 (stereo unspecified) , report its growth on SK-MEL-5 melanoma.
Solution: 56.2

Exercise: Given COc1cccc(O)c1O , report its growth on SK-MEL-5 melanoma.
Solution: 55.9

Exercise: Given O=[N+]([O-])c1ccc(S(=O)(=O)NN=C2CCCCC2)cc1 , report its growth on SK-MEL-5 melanoma.
Solution: 105

Exercise: Given CC(=O)OCCC(C)CCC=C(C)C (stereo unspecified) , report its growth on SK-MEL-5 melanoma.
Solution: 101

Exercise: Given S=c1sc2ccccc2n1CN1CCCCC1 , report its growth on SK-MEL-5 melanoma.
Solution: 104

Exercise: Given CC(=O)OCC(=O)[C@@]1(O)CC[C@H]2[C@@H]3CC[C@@H]4C[C@H](O)CC[C@]4(C)[C@H]3C(=O)C[C@@]21C , report its growth on SK-MEL-5 melanoma.
Solution: 97.1

Exercise: Given CC(=O)Nc1cccc(Cl)c1C , report its growth on SK-MEL-5 melanoma.
Solution: 102

Exercise: Given COc1cc(C(=O)N/N=C/c2cccc([N+](=O)[O-])c2)cc(OC)c1OC , report its growth on SK-MEL-5 melanoma.
Solution: 19

Exercise: Given N#CCCc1ccc(O)cc1 , report its growth on SK-MEL-5 melanoma.
Solution: 105

Exercise: Given O=c1cc(-c2ccccc2)nc2cc(-c3ccco3)[nH]n12 , report its growth on SK-MEL-5 melanoma.
Solution: 83.1

Exercise: Given O=C(Nc1ccccc1C(=O)NCC1CC1)c1cccs1 , report its growth on SK-MEL-5 melanoma.
Solution: 98.7

Exercise: Given C/C=C/CC(C)C(O)C1C(=O)NC(CC)C(=O)N(C)CC(=O)N(C)C(CC(C)C)C(=O)NC(C(C)C)C(=O)N(C)C(CC(C)C)C(=O)NC(C)C(=O)NC(C)C(=O)N(C)C(CC(C)C)C(=O)N(C)C(CC(C)C)C(=O)N(C)C(C(C)C)C(=O)N1C (stereo unspecified) , report its growth on SK-MEL-5 melanoma.
Solution: 2.67

Exercise: Given COc1cccc(COC(=O)Nc2ccccc2)c1OC , report its growth on SK-MEL-5 melanoma.
Solution: 98.2
